system: CLDN18.2 expressed in mouse healthy stomach tissue (mouse) (UniProt P56857)
measurement_protocol: flow cytometry, live cells from healthy mouse stomach, antibody 4 µg/ml
Reported % of positive healthy stomach cells (Mouse 1) is given for each of the following binders.
Expressed in %, but write only the number.

Worked examples, 2 binders total:
- binder: "hCl1c (antibody, human IgG1, kappa, V domains shown) VH: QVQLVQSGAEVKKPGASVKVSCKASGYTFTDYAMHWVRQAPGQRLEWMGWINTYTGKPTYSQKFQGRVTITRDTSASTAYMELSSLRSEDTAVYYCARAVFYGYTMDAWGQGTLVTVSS VL: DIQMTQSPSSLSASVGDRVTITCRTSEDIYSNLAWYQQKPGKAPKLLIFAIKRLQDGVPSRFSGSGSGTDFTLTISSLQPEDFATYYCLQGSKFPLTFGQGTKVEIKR"
  uom: "%"
  measurement: 0.1
- binder: "cCl1-1 (antibody, V domains shown) VH: QIQLVQSGPELKKPGESVKISCKASGYTFTDYAMHWVKQAPGKGLKWMGWINTYTGKPTYADDFKGRFVFSLEASASTANLQISNLKNEDTATYFCARAVFYGYTMDAWGQGTSVTVSS VL: DIQMTQSPASLSASLGETISIACRASEDIYSNLAWYQQKSGKSPQLLIFSVKRLQDGVPSRFSGSGSGTQYSLKISGMQPEDEGDYFCLQGSNFPLTFGSGTKLEIK"
  uom: "%"
  measurement: 0.4

### Prompt Look up % of positive healthy stomach cells (Mouse 1): hCl1b (antibody, human IgG1, kappa, V domains shown) VH: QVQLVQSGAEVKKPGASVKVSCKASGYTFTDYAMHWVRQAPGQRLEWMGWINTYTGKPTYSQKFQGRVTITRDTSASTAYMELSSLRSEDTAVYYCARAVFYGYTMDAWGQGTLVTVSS VL: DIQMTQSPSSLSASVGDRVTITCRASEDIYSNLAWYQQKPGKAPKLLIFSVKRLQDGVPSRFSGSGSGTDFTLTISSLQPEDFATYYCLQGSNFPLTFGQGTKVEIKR
### Response 1
